target: IKKB (Homo sapiens (Human)); assay: Kinase selectivity, Mobility shift assay; type: biochemical
Sequence (O14920 whole entry, species assumed): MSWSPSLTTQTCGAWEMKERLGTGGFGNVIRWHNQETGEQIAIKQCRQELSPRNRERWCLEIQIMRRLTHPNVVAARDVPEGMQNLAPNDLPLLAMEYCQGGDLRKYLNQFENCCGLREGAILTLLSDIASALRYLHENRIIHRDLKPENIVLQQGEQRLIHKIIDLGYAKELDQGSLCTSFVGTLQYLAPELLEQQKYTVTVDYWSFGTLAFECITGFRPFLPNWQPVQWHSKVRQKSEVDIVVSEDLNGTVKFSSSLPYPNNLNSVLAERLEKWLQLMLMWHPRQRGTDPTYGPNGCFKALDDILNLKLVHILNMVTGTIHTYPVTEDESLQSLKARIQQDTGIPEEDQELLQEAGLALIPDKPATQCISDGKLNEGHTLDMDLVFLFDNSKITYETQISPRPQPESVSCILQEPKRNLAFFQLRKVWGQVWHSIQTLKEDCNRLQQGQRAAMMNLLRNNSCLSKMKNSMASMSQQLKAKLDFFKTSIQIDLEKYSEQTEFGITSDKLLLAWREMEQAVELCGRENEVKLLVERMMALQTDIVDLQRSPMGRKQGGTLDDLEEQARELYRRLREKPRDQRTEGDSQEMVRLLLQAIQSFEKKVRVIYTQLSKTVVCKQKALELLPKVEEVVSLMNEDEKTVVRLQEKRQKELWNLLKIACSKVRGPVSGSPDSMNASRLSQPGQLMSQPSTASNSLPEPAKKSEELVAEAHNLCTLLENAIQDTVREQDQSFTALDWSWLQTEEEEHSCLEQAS
measured metric: IC50

// lookup IC50 for Nc1ccc(-c2ccc3ncc4c(=O)[nH]c(=O)n(-c5cccc(C(F)(F)F)c5)c4c3n2)cn1 [Compound 5] > 10000 nM

###

biological target: PAK2 (Homo sapiens (Human)); experiment: Kinase selectivity, Mobility shift assay; type: biochemical
Sequence (Q13177 whole entry, species assumed): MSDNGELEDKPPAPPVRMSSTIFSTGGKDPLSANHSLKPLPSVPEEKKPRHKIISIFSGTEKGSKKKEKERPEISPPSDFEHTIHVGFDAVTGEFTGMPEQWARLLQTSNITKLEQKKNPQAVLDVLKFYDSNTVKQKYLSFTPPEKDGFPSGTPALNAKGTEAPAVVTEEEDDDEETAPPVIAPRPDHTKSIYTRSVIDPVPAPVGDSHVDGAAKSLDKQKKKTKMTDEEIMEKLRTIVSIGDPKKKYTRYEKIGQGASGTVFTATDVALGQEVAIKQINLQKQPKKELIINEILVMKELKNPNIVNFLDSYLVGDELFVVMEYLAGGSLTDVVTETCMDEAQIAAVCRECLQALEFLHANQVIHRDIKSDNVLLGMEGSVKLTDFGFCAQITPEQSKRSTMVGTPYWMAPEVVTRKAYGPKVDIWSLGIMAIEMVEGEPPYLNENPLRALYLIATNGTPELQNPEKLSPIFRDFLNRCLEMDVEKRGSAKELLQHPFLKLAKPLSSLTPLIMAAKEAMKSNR
measured metric: IC50

Which IC50 reading was recorded for the compound `Nc1ccc(-c2ccc3ncc4c(=O)[nH]c(=O)n(-c5cccc(C(F)(F)F)c5)c4c3n2)cn1` ? > 10000 nM

###

experiment: In vivo pharmacokinetics assay in rat; settings: male, SD, plasma, intravenous, rats, I.V, 2 mg/kg
Counter-ions that a name gives are not always drawn.
Each record here notes measured clearance.
Provide only the numeric value, understood in mL/min/kg.

[[record]]
compound = "Cn1c(=O)c2cnc3ccc(-c4ccc(N)nc4)nc3c2n(-c2cccc(C(F)(F)F)c2)c1=O"
reported_measurement = 7.67


Now let's try a different one.
Data request, read-out clearance, for O=c1[nH]c(=O)n(-c2cccc(C(F)(F)F)c2)c2c1cnc1ccc(-c3cnc4[nH]ccc4c3)nc12 [Compound 30 hydrochloride] 19.7

###

target: AURA (Homo sapiens (Human)); test: Kinase selectivity, Mobility shift assay; assay type: biochemical
Sequence (O14965 whole entry, species assumed): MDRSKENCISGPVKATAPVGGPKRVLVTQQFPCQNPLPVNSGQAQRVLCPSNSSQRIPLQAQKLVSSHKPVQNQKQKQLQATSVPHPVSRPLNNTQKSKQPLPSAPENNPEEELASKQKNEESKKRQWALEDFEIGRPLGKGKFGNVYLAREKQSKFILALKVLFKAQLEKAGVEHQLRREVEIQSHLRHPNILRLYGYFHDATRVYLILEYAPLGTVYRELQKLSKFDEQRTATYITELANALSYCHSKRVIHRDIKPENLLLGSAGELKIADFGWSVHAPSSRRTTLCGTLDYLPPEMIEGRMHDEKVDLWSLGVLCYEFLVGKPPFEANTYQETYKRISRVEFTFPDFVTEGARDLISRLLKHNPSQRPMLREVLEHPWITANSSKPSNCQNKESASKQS
measured metric: IC50

Missing value: IC50, AURA (Homo sapiens (Human)), entry `Nc1ccc(-c2ccc3ncc4c(=O)[nH]c(=O)n(-c5cccc(C(F)(F)F)c5)c4c3n2)cn1` . Fill in? > 10000 nM

###

test: In vivo pharmacokinetics assay in rat; settings: male, SD, plasma, iv, rats, I.V, 2 mg/kg
measured metric: half-life (h)
Output spec: scalar in h, unitless text.

[[record]]
smiles_structure = "Nc1ccc(-c2ccc3ncc4c(=O)[nH]c(=O)n(-c5cccc(C(F)(F)F)c5)c4c3n2)cn1"
reported_measurement = 4.72


Sample `O=c1[nH]c(=O)n(-c2cccc(C(F)(F)F)c2)c2c1cnc1ccc(-c3cnc4[nH]ccc4c3)nc12` — what was its half-life? 3.89

###

target: MST2 (Homo sapiens (Human), UniProt Q13188); test: Kinase selectivity, Mobility shift assay; assay type: biochemical
Sequence (Q13188 whole entry, species assumed): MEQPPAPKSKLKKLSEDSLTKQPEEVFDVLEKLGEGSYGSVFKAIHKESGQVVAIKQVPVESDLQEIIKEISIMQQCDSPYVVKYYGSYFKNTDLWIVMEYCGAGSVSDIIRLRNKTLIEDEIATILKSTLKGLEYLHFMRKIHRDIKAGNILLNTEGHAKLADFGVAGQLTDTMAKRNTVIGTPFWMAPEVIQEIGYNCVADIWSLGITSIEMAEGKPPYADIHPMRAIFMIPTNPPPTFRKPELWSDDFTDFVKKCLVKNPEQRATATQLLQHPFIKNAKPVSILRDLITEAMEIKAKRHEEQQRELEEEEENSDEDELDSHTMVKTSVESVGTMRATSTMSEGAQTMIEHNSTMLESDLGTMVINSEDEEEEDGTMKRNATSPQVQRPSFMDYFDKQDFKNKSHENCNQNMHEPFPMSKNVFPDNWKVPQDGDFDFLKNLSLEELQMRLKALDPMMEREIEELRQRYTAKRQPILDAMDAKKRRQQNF
measured metric: IC50

Form field: IC50 recorded for `Nc1ccc(-c2ccc3ncc4c(=O)[nH]c(=O)n(-c5cccc(C(F)(F)F)c5)c4c3n2)cn1` with MST2 (Homo sapiens (Human), UniProt Q13188) (enter value) > 10000 nM

###

assay: In vivo pharmacokinetics assay in rat; settings: male, SD, plasma, intravenous, rats, I.V, 2 mg/kg
Where a name gives a salt, the structure may show the parent alone.
measured metric: AUC(0-inf) (ng·h/mL)
Numeric only. Scale: ng·h/mL

[[record]]
molecule = "Cn1c(=O)c2cnc3ccc(-c4ccc(N)nc4)nc3c2n(-c2cccc(C(F)(F)F)c2)c1=O"
unit_annotation = "ng·h/mL"
reported_measurement = 4470


Which AUC(0-inf) reading was recorded for the molecule O=c1[nH]c(=O)n(-c2cccc(C(F)(F)F)c2)c2c1cnc1ccc(-c3cnc4[nH]ccc4c3)nc12 [Compound 30 hydrochloride] ? 1690

###

biological target: MSK1 (Homo sapiens (Human)); test: Kinase selectivity, Mobility shift assay; type: biochemical
Sequence (O75582 whole entry, species assumed): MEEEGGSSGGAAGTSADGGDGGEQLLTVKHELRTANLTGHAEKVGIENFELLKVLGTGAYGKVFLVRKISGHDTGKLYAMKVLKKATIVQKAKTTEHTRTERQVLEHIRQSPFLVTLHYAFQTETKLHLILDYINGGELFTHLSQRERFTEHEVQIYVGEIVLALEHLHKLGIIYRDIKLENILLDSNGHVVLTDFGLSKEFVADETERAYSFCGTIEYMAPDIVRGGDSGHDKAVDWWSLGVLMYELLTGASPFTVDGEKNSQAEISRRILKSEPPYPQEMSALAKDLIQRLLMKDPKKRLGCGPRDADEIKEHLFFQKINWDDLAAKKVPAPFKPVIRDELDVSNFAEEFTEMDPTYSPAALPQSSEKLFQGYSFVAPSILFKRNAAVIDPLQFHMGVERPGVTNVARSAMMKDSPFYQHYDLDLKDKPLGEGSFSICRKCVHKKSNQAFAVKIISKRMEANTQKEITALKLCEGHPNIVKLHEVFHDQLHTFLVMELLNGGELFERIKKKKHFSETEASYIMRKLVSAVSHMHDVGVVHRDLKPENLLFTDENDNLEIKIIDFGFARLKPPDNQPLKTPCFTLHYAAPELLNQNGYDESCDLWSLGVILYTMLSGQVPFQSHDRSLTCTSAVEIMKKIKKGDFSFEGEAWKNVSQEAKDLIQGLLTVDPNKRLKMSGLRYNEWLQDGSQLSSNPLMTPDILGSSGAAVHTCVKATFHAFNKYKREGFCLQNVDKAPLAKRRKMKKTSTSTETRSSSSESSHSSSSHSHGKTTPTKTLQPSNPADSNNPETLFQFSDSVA
measured metric: IC50

If you can, please state the reported IC50 value of Nc1ccc(-c2ccc3ncc4c(=O)[nH]c(=O)n(-c5cccc(C(F)(F)F)c5)c4c3n2)cn1 [Compound 5] . > 10000 nM
